Tested on: BT-549
Experiment: NCI tumour cell line growth inhibition, 48 h
Activity calls are given as the source filed them. No stated cut-off is given here; in the data, active = GI50 up to about 1.1 µM and inactive = higher.
Please answer using one outcome listed in label 1 = active, label 0 = inactive

Consider the worked cases shown below.
- COMPOUND: "Cc1[nH]c2ncn3nc(C(Cl)(Cl)Cl)nc3c2c1Cc1ccccc1"
  TARGET: "BT-549"
  CLASS NAME: "label 0"
- COMPOUND: "Fc1ccc(F)c(/C=N/C23CC4CC(CC(C4)C2)C3)c1"
  TARGET: "BT-549"
  CLASS NAME: "label 0"
- COMPOUND: "O=C(CCC(NC(=O)OCc1ccccc1)C(=O)OCc1ccccc1)Nc1ccc(OCc2ccccc2)cc1 (stereo not drawn)"
  TARGET: "BT-549"
  CLASS NAME: "label 0"
- COMPOUND: "C/C=C/C(O)P1(=O)N(Cc2ccccc2)[C@@H]2CCCC[C@H]2N1Cc1ccccc1 (stereo partly drawn)"
  TARGET: "BT-549"
  CLASS NAME: "label 0"
- COMPOUND: "C(=C\\c1ccccc1)/C=N/c1ccc2c(c1)Cc1ccccc1-2"
  TARGET: "BT-549"
  CLASS NAME: "label 0"
- COMPOUND: "CSc1nc(NC(C)C)c2c(n1)Sc1nc3ccccc3n1N=C2"
  TARGET: "BT-549"
  CLASS NAME: "label 0"

Challenge: Assay result, entry `COc1ccc2c(c1)OCC1=C2Oc2ccccc2C1` — outcome?
Response given: label 0

Challenge: Assay result, entry `CSc1c(C#N)c(O)n(-c2ccc(Cl)cc2)c(=O)c1C(C)=O` — outcome?
Response given: label 0

Challenge: Assay result, entry CN1CN(c2ccccc2)C2(CCN(CCC3COc4ccccc4O3)CC2)C1=O (stereo not drawn) — outcome?
Response given: label 0

Challenge: Assay result, entry `C[C@H](CCC1=NCCN1)[C@H]1CC[C@H]2[C@@H]3[C@H](O)C[C@@H]4C[C@H](O)CC[C@]4(C)[C@H]3CC[C@]12C` — outcome?
Response given: label 0

Challenge: Assay result, entry `O=C1CC(=O)NC(NN2C(=O)/C(=C/c3ccccc3)N=C2c2ccccc2)=N1` — outcome?
Response given: label 0

Challenge: Assay result, entry `Cc1cc(=O)nc(S(=O)(=O)NC(=O)Nc2cccc(Cl)c2)[nH]1` — outcome?
Response given: label 0

Challenge: Assay result, entry `O[C@@H]1C[C@H]2N3CC[C@@]2(c2cc4c(cc2C3)OCO4)[C@H]2O[C@@H]12` — outcome?
Response given: label 0

Challenge: Assay result, entry CCC1=CC2Cc3nc4cc(Cl)ccc4c(N)c3C(C1)C2 (stereo not drawn) — outcome?
Response given: label 0

Challenge: Assay result, entry CC(C)(C)[Si](C)(C)OCCCCC1CC2(S(=O)(=O)C3=CC=C=C=C3)ON1CC2S(=O)(=O)c1ccccc1 (stereo not drawn) — outcome?
Response given: label 0

Challenge: Assay result, entry COC(=O)C1(Cc2ccc3c(c2)CCC3)Cc2ccccc2C1O (stereo not drawn) — outcome?
Response given: label 0

Challenge: Assay result, entry `O=C(/C=C/c1ccccc1)c1cc(Br)ccc1O` — outcome?
Response given: label 0

Challenge: Assay result, entry `NS(=O)(=O)c1nnc(NC(=O)N(c2ccccc2)c2ccccc2)s1` — outcome?
Response given: label 0

Challenge: Assay result, entry `CCOC(=O)CN1CC(C2=C(O)CN(CC(=O)OCC)C2=O)=CC1=O` — outcome?
Response given: label 0

Challenge: Assay result, entry `CN1CSC(=S)N(c2c3ccccc3nc3ccc(Br)cc23)C1` — outcome?
Response given: label 0

---

System: OVCAR-4
Test: NCI tumour cell line growth inhibition, 48 h
Active and inactive are the calls of the source. Cut-off read from the data, not from the text of the source: active = GI50 up to about 1.1 µM and inactive = higher.
Readings of GI50 for the listed compounds

Challenge: Specify reported GI50 for the compound shown: CCCCCCCCCC1CC(=O)NCC(=O)NC(C(C)C)C(=O)NC(CC(C)C)C(=O)NC(C)C(=O)NC(C(C)C)C(=O)O1 (stereo not given)
Response given: 4.76 µM (inactive)

---

Test system: COLO 205
Assay: NCI tumour cell line growth inhibition, 48 h
Active and inactive are the calls of the source. No stated cut-off is given here; in the data, active = GI50 up to about 1.1 µM and inactive = higher.
Readings of GI50 for the listed compounds

- COMPOUND: "O=C(CN1CCOCC1)Nc1ccc2c(c1)C1Oc3ccccc3CC1CO2 (configuration not stated)"
  GI50: "> 100 µM (inactive)"
- COMPOUND: "CC(C)CCCC(=O)CCCCCCC(=O)CCN(O)C(=O)C(N)CO (configuration not stated)"
  GI50: "23.7 µM (inactive)"

Challenge: Specify reported GI50 for the compound shown: CC(=O)Nc1ccc(C(=O)NN2C(=O)CSC2c2ccccc2)cc1 (configuration not stated)
Response given: > 100 µM (inactive)

Challenge: Specify reported GI50 for the compound shown: `O=C(O)CN(c1ccc(F)cc1)S(=O)(=O)c1ccccc1`
Response given: > 100 µM (inactive)

Challenge: Specify reported GI50 for the compound shown: `COc1ccc(Cc2c(N)[nH]c(=O)n(C)c2=O)cc1`
Response given: > 100 µM (inactive)

Challenge: Specify reported GI50 for the compound shown: CC[C@@]1(O)C(=O)OCc2c1cc1n(c2=O)Cc2c-1nc1ccccc1c2/C=N\NC(=O)C(N)CCSC (some centres not stated)
Response given: 1.24 µM (inactive)

Challenge: Specify reported GI50 for the compound shown: `CCOC(=O)Nc1ccc(S(=O)(=O)Nn2cnnc2)cc1`
Response given: 39.9 µM (inactive)

---

System: SW-620
Assay: NCI tumour cell line growth inhibition, 48 h
Calls of active or inactive are those of the source. Rule as the data show it: active = GI50 up to about 1.1 µM and inactive = higher.
Readings of GI50 for the listed molecules

For orientation, consider the following solved cases.
- MOLECULE: "OCCNc1nc2c(N3CCCC3)nc(N3CCNCC3)nc2nc1NCc1ccccc1"
  VALUE: "19.1 µM (inactive)"
- MOLECULE: "COc1ccc2c(CCNC(=O)/C=C/c3ccccc3)c(C(C)=O)[nH]c2c1[N+](=O)[O-]"
  VALUE: "5.38 µM (inactive)"
- MOLECULE: "C=C(C(=O)OC)N1C(=O)CC(C)C1=O (stereo unspecified)"
  VALUE: "9.35 µM (inactive)"
- MOLECULE: "CNC(=O)N(C)/N=N/CCCl"
  VALUE: "> 100 µM (inactive)"

Challenge: Specify reported GI50 for the molecule shown: `N#Cc1cc2cc3c4c(c2oc1=O)CCCN4CCC3`
Response given: > 100 µM (inactive)

Challenge: Specify reported GI50 for the molecule shown: `Cc1[nH]c(O)nc1C(=O)c1ccc(-n2ccnc2)cc1`
Response given: > 100 µM (inactive)

Challenge: Specify reported GI50 for the molecule shown: `Cc1cc2c(cc1C)[n+]([O-])c(C(=O)CC(=O)C(=O)Nc1ccccc1C)c(C)[n+]2[O-]`
Response given: > 100 µM (inactive)

Challenge: Specify reported GI50 for the molecule shown: `CC(=O)/C(=C\n1c(=S)[nH]c2ccc([N+](=O)[O-])cc21)C(=O)Nc1ccccc1C`
Response given: > 100 µM (inactive)

Challenge: Specify reported GI50 for the molecule shown: `CC(C)(C)OC(=O)N(CCCN)CCCCN(CCCN)C(=O)OC(C)(C)C`
Response given: > 100 µM (inactive)

Challenge: Specify reported GI50 for the molecule shown: `O=C(NCCCCNCCCNC(=O)OCc1ccccc1)OCc1ccccc1`
Response given: 61.7 µM (inactive)

Challenge: Specify reported GI50 for the molecule shown: `CC(C)(C)/C(O)=C\c1nc2cc(C(F)(F)F)ccc2[nH]c1=O`
Response given: > 100 µM (inactive)

---

Test system: SNB-19
Test: NCI tumour cell line growth inhibition, 48 h
The source made the active and inactive calls. No stated cut-off is given here; in the data, active = GI50 up to about 1.1 µM and inactive = higher.
Please answer using one outcome listed in 1 (active), -1 (inactive)

Consider the worked cases shown below.
- COMPOUND: "COc1ccc(/C=C2\\CCC(CN(C)C)C2=O)cc1 (stereo not given)"
  CLASS NAME: -1
- COMPOUND: "COC(=O)C1=Cc2cn(S(=O)(=O)c3ccc(C)cc3)c3cccc(c23)C(C=C(C)C)N1C(C)=O (stereo not given)"
  CLASS NAME: -1
- COMPOUND: "Cc1nc2nn(C)cc2c(=O)n1/N=C/c1ccccc1"
  CLASS NAME: -1

Challenge: Assay result, entry `Oc1ccc(Br)cc1/C=N/c1c(NC2CCCCC2)oc2ccc(Br)cc12` — outcome?
Response given: -1

---

Tested on: SR
Test: NCI tumour cell line growth inhibition, 48 h
The source made the active and inactive calls. Rule as the data show it: active = GI50 up to about 1.1 µM and inactive = higher.
READOUT: GI50

- COMPOUND: "CCCCCCCCCCCCCCCCOP(=O)(O)OCC(NC(C)=O)C(=O)O (configuration not stated)"
  VALUE: "73.8 µM (inactive)"
- COMPOUND: "O=C1OC(=O)C2C1C1C(c3ccccc3)=C(c3ccccc3)C2(O)C2C(=O)OC(=O)C12 (configuration not stated)"
  VALUE: "78.5 µM (inactive)"
- COMPOUND: "O=S(=O)(CC#CCS(=O)(=O)c1ccccc1)c1ccccc1"
  VALUE: "2.66 µM (inactive)"
- COMPOUND: "O=C1/C(=C/c2ccc(Cl)cc2)N=C(c2ccccc2)N1c1nc2ccccc2s1"
  VALUE: "0.0537 µM (active)"
- COMPOUND: "CCC(=O)O[C@@H]1C2C(OC(C)=O)C34COC(C)([C@@H]3C3C(C[C@]3(C)OC(C)=O)[C@@H](OC(=O)c3ccccc3)C4=O)[C@H](OC(C)=O)[C@@]2(OC(C)=O)C[C@@H]1C (some centres not stated)"
  VALUE: "54.1 µM (inactive)"
- COMPOUND: "S=c1[nH]c(=S)c2cc(Sc3ccc4[nH]c(=S)[nH]c(=S)c4c3)ccc2[nH]1"
  VALUE: "17.1 µM (inactive)"

Challenge: Specify reported GI50 for the compound shown: C[C@@H]1CC2(C[C@@H](C)C3[C@@H](CC4(C)CCCC5C6=CC(O)(CC[C@]34C)OC6=CC(=O)OC5(C)C)O2)OC1=O (some centres not stated)
Response given: > 100 µM (inactive)

Challenge: Specify reported GI50 for the compound shown: CC1(O)C=CC2CCC1C2O (configuration not stated)
Response given: 23.7 µM (inactive)

Challenge: Specify reported GI50 for the compound shown: COC1CC(OC2C(C)OC(OC3C(C)OC(OC4C(C)OC(O[C@H]5CC[C@@]6(C)C(=CC[C@]7(O)[C@@H]6C[C@@H](OC(=O)/C=C/c6ccccc6)[C@@]6(C)[C@]7(O)CC[C@@]6(O)C(C)=O)C5)CC4OC)CC3OC)CC2OC)OC(C)C1O (some centres not stated)
Response given: > 12.5 µM (inactive)

Challenge: Specify reported GI50 for the compound shown: COc1ccc(P2(=S)SP(=S)(c3ccc(Cl)cc3)S2)cc1 (configuration not stated)
Response given: > 100 µM (inactive)

Challenge: Specify reported GI50 for the compound shown: `C[Si](C)(C)CNC(=O)OCc1ccccc1`
Response given: 30.6 µM (inactive)
